Below, each of the binders is paired with its reported OD450 value.
# TARGET_UNDER_TEST: T1, human MSLN-R1-his protein (human, UniProt Q13421 296-390)
# T1 construct: Region 1 of human mesothelin, made in HEK293E cells, His-tagged; also called human MSLN-R1 protein; hMSLN-R1-his; not shown: His tag
# T1 chain: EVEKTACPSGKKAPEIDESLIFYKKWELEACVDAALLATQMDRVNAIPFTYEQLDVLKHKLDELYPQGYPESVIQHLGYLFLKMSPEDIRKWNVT
# PROTOCOL: ELISA on coated MSLN-R1; antibody 0.01 nM
Hi! Could you send only the number? It should be in OD450, unit omitted.

BINDER	ENDPOINT_UNIT	RESULT_NUMBER
S009-F8-5.15 (antibody, human IgG1, kappa, V domains shown) VH: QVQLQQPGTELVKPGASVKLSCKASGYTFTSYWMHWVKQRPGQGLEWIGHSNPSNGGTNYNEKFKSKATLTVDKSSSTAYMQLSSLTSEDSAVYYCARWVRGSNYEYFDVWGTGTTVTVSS VL: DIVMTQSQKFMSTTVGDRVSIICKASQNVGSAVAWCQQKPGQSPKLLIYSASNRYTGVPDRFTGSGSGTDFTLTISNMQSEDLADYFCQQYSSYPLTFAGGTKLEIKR	OD450	0.05

Shift focus to the following entry.
Entry S009-F8-4.5 (antibody, human IgG1, kappa, V domains shown) VH: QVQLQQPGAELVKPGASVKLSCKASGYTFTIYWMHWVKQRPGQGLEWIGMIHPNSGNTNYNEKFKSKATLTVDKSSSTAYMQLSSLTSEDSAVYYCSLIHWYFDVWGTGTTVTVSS VL: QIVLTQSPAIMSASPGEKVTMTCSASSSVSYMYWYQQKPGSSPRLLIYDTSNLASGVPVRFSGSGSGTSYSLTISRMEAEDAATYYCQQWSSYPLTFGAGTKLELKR has what OD450?
0.05

The measured values listed here are drawn from patent US20250250357A1.
